System: NKL (IL-2 2.5 ng/mL);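 further: normalised to DMSO-only wells as negative and benzethonium chloride as positive control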
PROTOCOL_NOTES: percent inhibition of viability; higher = more inhibition
CONDITION_SUMMARY: 72 h; 1000 nM
MEASUREMENT_NAME: percent inhibition of viability

COMPOUND	MEASUREMENT_NAME	VAL
COc1cccc2c1C(=O)c1c(O)c3c(c(O)c1C2=O)C[C@@](O)(/C(CO)=N/NC(=O)CCCCCN1C(=O)C=CC1=O)C[C@@H]3O[C@H]1C[C@H](N)[C@H](O)[C@H](C)O1 [Aldoxorubicin] (max concentration tested 1000 nM)	percent inhibition of viability	107%
CC[C@H](C)C(=O)O[C@H]1C[C@@H](C)C=C2C=C[C@H](C)[C@H](CC[C@@H]3C[C@@H](O)CC(=O)O3)[C@H]21 [Lovastatin] (max concentration tested 10000 nM)	percent inhibition of viability	-3.47%
C=CCn1c(=O)c2cnc(Nc3ccc(N4CCN(C)CC4)cc3)nc2n1-c1cccc(C(C)(C)O)n1 [MK1775] (max concentration tested 10000 nM)	percent inhibition of viability	94.3%
CCCCCCCCc1ccc(CCC(N)(CO)CO)cc1 [Fingolimod] (max concentration tested 10000 nM)	percent inhibition of viability	30.1%
COc1nc(N)nc2c1ncn2[C@@H]1O[C@H](CO)[C@@H](O)[C@@H]1O [Nelarabine] (max concentration tested 10000 nM)	percent inhibition of viability	10.4%
C[C@]12CC[C@@H]3c4ccc(O)cc4C[C@@H](CCCCCCCCC[S+]([O-])CCCC(F)(F)C(F)(F)F)[C@H]3[C@@H]1CC[C@@H]2O (some centres not stated) [Fulvestrant] (max concentration tested 1000 nM)	percent inhibition of viability	38.2%
C[C@@H]1C[C@H]2[C@@H]3CCC4=CC(=O)C=C[C@]4(C)[C@@]3(F)[C@@H](O)C[C@]2(C)[C@@]1(O)C(=O)CO [Dexamethasone] (max concentration tested 10000 nM)	percent inhibition of viability	64.1%
N#CCNC(=O)c1ccc(-c2ccnc(Nc3ccc(N4CCOCC4)cc3)n2)cc1 [Momelotinib] (max concentration tested 10000 nM)	percent inhibition of viability	79.3%
Cc1cccc(-c2nn3c(c2-c2ccnc4ccc(C(N)=O)cc24)CCC3)n1 [Galunisertib] (max concentration tested 1000 nM)	percent inhibition of viability	-23.6%
O=C1NC(=O)[C@@H](c2cn3c4c(cccc24)CCC3)[C@@H]1c1c[nH]c2ccccc12 [Tivantinib] (max concentration tested 1000 nM)	percent inhibition of viability	84.3%
CC(C)(C)NC(=O)[C@H]1CC[C@H]2[C@@H]3CC[C@H]4NC(=O)C=C[C@]4(C)[C@H]3CC[C@]12C [Finasteride] (max concentration tested 10000 nM)	percent inhibition of viability	13%
N#Cc1ccc2[nH]c(O)c(-c3ccc(CN4CCOCC4)cn3)c2c1 [AZD-1080] (max concentration tested 10000 nM)	percent inhibition of viability	-10.8%
